- assay-procedure: NCI Yeast Anticancer Drug Screen. Data for the mlh1 rad18 strain (AID 175)
- measurement-conditions: S. cerevisiae mlh1 rad18 strain growth inhibition; at 50.0 µM; hits give high values
- Description: Growth inhibition of yeast strains with defined genetic alterations is measured as a screen for potential anti-cancer activity. Selected strains with alterations in DNA damage repair or cell cycle control were exposed to compounds and growth inhibition was measured relative to vehicle treated controls. The strain used in this assay is mlh1 rad18
Compounds without any hit were thinned out: in the full panel of roughly 79,000, 15% have a hit.
measured-endpoint: growth inhibition (%)

CC(C)(C)C1=CC(=C/C=C/c2cc(C(C)(C)C)[o+]c(C(C)(C)C)c2)C=C(C(C)(C)C)O1 : 37.5
O=C(c1ccccc1)c1c(CC(O)c2ccccn2)n(C(=O)c2ccccc2)c2ccccc12 (stereo not drawn) : 84
COC1=C(C)C(=O)c2c(c(COC(N)=O)c3n2CC2C3N2C)C1=O (stereo not drawn) : 96
Fc1cccc(C2N(Cc3ccc(N(CCCl)CCCl)cc3Cl)CCCN2Cc2ccc(N(CCCl)CCCl)cc2Cl)c1 : 9.15
O=[N+]([O-])/C=C/c1cc2c(cc1Br)OCO2 : 98.5
C[C@@H]1CCC2[C@@H](C)[C@H](O[C@H]3O[C@@H]4O[C@@]5(C)CCC6[C@H](C)CCC([C@H]3C)[C@]64OO5)O[C@@H]3O[C@@]4(C)CCC1[C@@]23OO4 (stereo partly drawn) : 90.8
CCCCCCC1CCC2CCCC(C)N12 (stereo not drawn) : 74.9
Cc1cc[n+](C2=C(Nc3cc(C)cc(C)c3)C(=O)c3ccccc3C2=O)cc1 : 51.8
CC(CCS(C)(=O)=O)([N+](=O)[O-])[N+](=O)[O-] : 98.3
CN1CSC(=S)N(C)C1 : 95.7
CC(=O)O.[Au].c1ccc([PH+](c2ccccc2)c2ccccc2)cc1 : 97.6
O=C(Nc1ccccc1)c1cc([N+](=O)[O-])ccc1O : 97.5
O=C(O)c1ccccc1[Se][Se]c1ccccc1C(=O)O : 74.5
